Here's a batch of compounds along with measured Ki for Adenosine receptor A2a (Rattus norvegicus, UniProt P30543).
Parameter: Ki (µM)

These solved cases illustrate the format of a correct answer.
CCNC(=O)CCSc1nc(N)c2cnn(-c3ccccc3)c2n1; 1.28
CC(Sc1nc(SC(C)C(N)=O)c2cnn(-c3ccccc3)c2n1)C(N)=O (stereo not given); 0.146
NC(=O)CCSc1nc(N)c2cnn(-c3ccccc3)c2n1; 0.101

I. NC(=O)CSc1nc(N)c2cnn(-c3ccccc3)c2n1
II. CCNC(=O)CSc1nc(N)c2cnn(-c3ccccc3)c2n1
## Input Select the item whose Ki value is smaller, choosing between I and II . Response format: the label of the selected entry.
## Output I
(I: 0.0449 µM, II: 0.131 µM)

Ref: ChEMBL document CHEMBL1159189
